The origin of these recorded values is patent US20240360228A1.

Known % Blocking of a selection of binders
# assayedTarget: T1, human chemokine (C-C motif) receptor 8 (CCR8) (human, UniProt P51685 1-355)
# T1 construct: On human peripheral blood lymphocytes / PBMC (native) or on human CCR8 GFP-transfected Ba/F3 cells; also called hCCR8; human CCR8
# T1 sequence (P51685 whole entry): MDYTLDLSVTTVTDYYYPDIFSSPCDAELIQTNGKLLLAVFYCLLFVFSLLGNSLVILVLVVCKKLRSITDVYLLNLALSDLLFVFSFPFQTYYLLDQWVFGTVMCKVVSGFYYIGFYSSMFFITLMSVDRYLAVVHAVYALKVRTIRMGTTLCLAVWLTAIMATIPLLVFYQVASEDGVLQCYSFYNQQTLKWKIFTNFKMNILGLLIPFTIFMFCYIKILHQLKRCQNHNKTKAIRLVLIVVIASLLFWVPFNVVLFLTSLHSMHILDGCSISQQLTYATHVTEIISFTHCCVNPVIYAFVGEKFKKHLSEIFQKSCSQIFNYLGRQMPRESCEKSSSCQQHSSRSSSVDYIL
# assayRemarks: flow cytometry blocking, PBMC CCR8+ CD4+ cells; competitor PE-AB5 (its MFI is read)
Expressed in %, but write only the number.

- AB8 (antibody, V domains shown, Hybridoma monoclonal; also called antibody 8; clone 8) VH: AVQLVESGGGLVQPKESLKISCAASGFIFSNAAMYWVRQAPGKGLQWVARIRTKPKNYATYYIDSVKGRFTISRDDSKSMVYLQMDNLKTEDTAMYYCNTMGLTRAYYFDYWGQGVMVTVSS VL: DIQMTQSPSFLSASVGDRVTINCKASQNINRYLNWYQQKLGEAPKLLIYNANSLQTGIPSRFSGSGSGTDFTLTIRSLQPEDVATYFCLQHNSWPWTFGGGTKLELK: -27.2

Continue with the next binder.
-- ask Give the measured % Blocking of AB12 (antibody, V domains shown, Hybridoma monoclonal; also called antibody 12; clone 12) VH: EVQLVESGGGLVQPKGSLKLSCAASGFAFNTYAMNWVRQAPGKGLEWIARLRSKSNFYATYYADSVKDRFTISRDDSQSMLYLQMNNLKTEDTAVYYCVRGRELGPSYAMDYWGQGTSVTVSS VL: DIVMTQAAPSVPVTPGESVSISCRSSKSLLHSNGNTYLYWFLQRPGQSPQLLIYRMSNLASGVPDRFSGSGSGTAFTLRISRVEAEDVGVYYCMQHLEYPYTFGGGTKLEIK .
-- reply -36.2
